- protocol: Clearance in Sprague-Dawley rat at 10 mg/kg, iv by LC-MS/MS analysis
- Assay type: ADME, organism-based
- details: in vivo
reportedMetric: clearance (mL/min/kg)

>>> print(df.to_string())
                                   compound  recordednumber
0  Cc1nc(Nc2ncc(C(=O)Nc3c(C)cccc3Cl)s2)cc(N2CCN(CCO)CC2)n1 [DASATINIB ANHYDROUS]            26.4

---

- protocol: Cytotoxicity against HUVEC cells assessed as reduction in cell viability after 72 hrs by CellTiter-Glo assay
- Format: toxicity, cell-based
- details: human
reportedMetric: IC50 at 72 h (nM)

In [3]: df
Out[3]:
                                smilesentry  reportedmetric  measurementunit  recordednumber
0  COc1cc(-c2ccc3[nH]nc(/C=C/c4ccc(OC)c(OC)c4)c3c2)ccc1O    IC50 at 72 h               nM              18
1  Cc1ccc2cc(NC(=O)c3ccccc3Sc3ccc4c(/C=C/c5ccccn5)n[nH]c4c3)ccc2n1    IC50 at 72 h               nM             0.8
